The binders listed here are annotated with their fold repression.
Target: T1, ECF34_1384
T1 chain: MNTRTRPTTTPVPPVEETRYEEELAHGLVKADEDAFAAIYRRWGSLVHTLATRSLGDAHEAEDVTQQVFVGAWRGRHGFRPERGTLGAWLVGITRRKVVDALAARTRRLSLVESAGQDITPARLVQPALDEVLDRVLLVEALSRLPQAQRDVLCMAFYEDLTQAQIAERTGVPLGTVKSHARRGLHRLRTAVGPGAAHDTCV
test_readout: fold repression

- AS16_3622 (protein) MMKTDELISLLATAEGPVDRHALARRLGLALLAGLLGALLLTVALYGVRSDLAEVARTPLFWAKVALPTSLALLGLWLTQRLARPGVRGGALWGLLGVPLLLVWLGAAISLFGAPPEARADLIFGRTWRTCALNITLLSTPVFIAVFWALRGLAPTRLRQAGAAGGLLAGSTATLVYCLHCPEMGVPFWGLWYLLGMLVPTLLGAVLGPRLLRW: 2.8
- AS27_4265 (protein) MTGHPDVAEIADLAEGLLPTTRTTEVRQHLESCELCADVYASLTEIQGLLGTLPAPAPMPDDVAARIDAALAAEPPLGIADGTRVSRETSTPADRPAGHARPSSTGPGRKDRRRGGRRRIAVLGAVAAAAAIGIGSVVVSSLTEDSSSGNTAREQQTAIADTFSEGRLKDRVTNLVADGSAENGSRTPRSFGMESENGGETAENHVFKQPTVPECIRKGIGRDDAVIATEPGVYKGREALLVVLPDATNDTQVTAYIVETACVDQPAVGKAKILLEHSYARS: 5.28
- AS15_436 (protein) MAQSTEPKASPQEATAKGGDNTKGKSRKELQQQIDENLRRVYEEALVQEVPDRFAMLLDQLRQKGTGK: 2.2
